Where do these numbers come from? They come from patent US20230242830A1.

- ASSAYED_TARGET: BuChE from equine serum (eqBuChE) (Equus caballus)
- Construct: The BuChE freeze-dried from equine serum (eqBuChE, Sigma Aldrich)
- Sequence (P81908 whole entry): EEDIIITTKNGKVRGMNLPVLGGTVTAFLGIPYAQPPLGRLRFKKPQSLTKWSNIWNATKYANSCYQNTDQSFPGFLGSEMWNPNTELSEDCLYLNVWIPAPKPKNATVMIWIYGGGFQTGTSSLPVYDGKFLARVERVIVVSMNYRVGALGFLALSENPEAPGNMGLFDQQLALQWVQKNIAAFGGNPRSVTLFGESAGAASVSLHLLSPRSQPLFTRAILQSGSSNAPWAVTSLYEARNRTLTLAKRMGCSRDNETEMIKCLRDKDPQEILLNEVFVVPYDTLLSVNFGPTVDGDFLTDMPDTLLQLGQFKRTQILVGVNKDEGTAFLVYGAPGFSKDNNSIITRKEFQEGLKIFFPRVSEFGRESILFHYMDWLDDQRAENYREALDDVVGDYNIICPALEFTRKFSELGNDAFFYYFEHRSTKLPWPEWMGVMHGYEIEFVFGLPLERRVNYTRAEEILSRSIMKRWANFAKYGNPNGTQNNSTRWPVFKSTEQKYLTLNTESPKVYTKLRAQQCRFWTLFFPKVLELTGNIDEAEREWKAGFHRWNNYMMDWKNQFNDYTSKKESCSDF
- PROCEDURE_SUMMARY: butyrylcholinesterase inhibition, Ellman spectrometric method
READOUT_KIND: pIC50
Just so you know, pIC50 here is -log10 of the concentration in molar units; reply with that number alone.

Data request: Checklist item: pIC50 tested on BuChE from equine serum (eqBuChE) (Equus caballus), entry CC(C)(C)c1cc(OP(=O)(Oc2ccccc2)Oc2ccccc2)c(C(C)(C)C)cc1OP(=O)(Oc1ccccc1)Oc1ccccc1 , value?
Data returned: 3.95

Data request: # value lookup — system BuChE from equine serum (eqBuChE) (Equus caballus), readout pIC50, item O=P(Oc1ccccc1)(Oc1ccccc1)Oc1ccc(OP(=O)(Oc2ccccc2)Oc2ccccc2)c2ccccc12
Data returned: 3.90

Data request: Param readout = pIC50; param system = BuChE from equine serum (eqBuChE) (Equus caballus); param query = CC(=O)c1cc(OP(=O)(Oc2ccccc2)Oc2ccccc2)ccc1OP(=O)(Oc1ccccc1)Oc1ccccc1 [Z, reference compound] ; response: value
Data returned: 6.94

Data request: Requested read-out pIC50, target or system BuChE from equine serum (eqBuChE) (Equus caballus), entry O=C(c1ccc(OP(=O)(Oc2ccccc2)Oc2ccccc2)cc1)c1ccc(OP(=O)(Oc2ccccc2)Oc2ccccc2)cc1
Data returned: 3.79

Data request: Report pIC50 for O=P(Oc1ccccc1)(Oc1ccccc1)Oc1ccc(OP(=O)(Oc2ccccc2)Oc2ccccc2)c(Cl)c1 [Y, reference compound] tested on BuChE from equine serum (eqBuChE) (Equus caballus).
Data returned: 6.00

Data request: What pIC50 appears in the records for this molecule with BuChE from equine serum (eqBuChE) (Equus caballus)? O=P(Oc1ccccc1)(Oc1ccccc1)Oc1ccc(C2(c3ccc(OP(=O)(Oc4ccccc4)Oc4ccccc4)cc3)c3ccccc3-c3ccccc32)cc1
Data returned: 3.98

Data request: Notebook: pull reported pIC50 for BuChE from equine serum (eqBuChE) (Equus caballus), entry CC(c1ccc(OP(=O)(Oc2ccccc2)Oc2ccccc2)cc1)(c1ccc(OP(=O)(Oc2ccccc2)Oc2ccccc2)cc1)c1ccc(OP(=O)(Oc2ccccc2)Oc2ccccc2)cc1
Data returned: 4.15

Data request: Give BuChE from equine serum (eqBuChE) (Equus caballus) pIC50 for O=P(Oc1ccccc1)(Oc1ccccc1)Oc1ccc(OP(=O)(Oc2ccccc2)Oc2ccccc2)c(-c2ccccc2)c1
Data returned: 4.59

Data request: Look up pIC50 with BuChE from equine serum (eqBuChE) (Equus caballus) for this molecule: CC(C)(C)c1cc(OP(=O)(Oc2ccccc2)Oc2ccccc2)ccc1OP(=O)(Oc1ccccc1)Oc1ccccc1
Data returned: 3.98
